# Test system: 996289-038-R-J1-PDC complex spheroid viability
# ASSAY_INFO: Anticancer human tumor 996289-038-R-J1-PDC patient-derived colon adenocarcinoma cell line growth inhibition [CLK]
# CONDITION_SUMMARY: curve of first compound; second compound 10 µM
ASSAY_READOUT: IC50

Query: Recall and state the measured IC50 for COC1C=CCC(C)C(C)S(=O)(=O)NC(=O)c2ccc3c(c2)N(CC2CCC21)CC1(CCCc2cc(Cl)ccc21)CO3 (stereo not drawn) + CN1CCN(c2cc(C(=O)Nc3cc4cc(-c5cnn(C)c5)ccc4cn3)ccn2)CC1 .
Result: < 31.6 nM

Query: Item CC(=O)O[C@H]1C(=O)[C@@]2(C)[C@H]([C@H](OC(=O)c3ccccc3)[C@]3(O)C[C@H](OC(=O)[C@H](O)[C@@H](NC(=O)c4ccccc4)c4ccccc4)C(C)=C1C3(C)C)[C@]1(OC(C)=O)CO[C@@H]1C[C@@H]2O + CN1CCN(c2cc(C(=O)Nc3cc4cc(-c5cnn(C)c5)ccc4cn3)ccn2)CC1 : provide IC50
Result: < 31.6 nM

Query: Return IC50 for the following molecule: COC1C=CCC(C)C(C)S(=O)(=O)NC(=O)c2ccc3c(c2)N(CC2CCC21)CC1(CCCc2cc(Cl)ccc21)CO3 (stereo not drawn) + CNC(=O)c1ccc(Nc2nc(OC3CCCC3)c3c(-c4ccc5nc(C)oc5c4)c[nH]c3n2)c(OC)c1
Result: 519 nM

====

# Tested on: 996289-038-R-J1-PDC complex spheroid viability
# ASSAY_INFO: Anticancer human tumor 996289-038-R-J1-PDC cell line growth inhibition [CLK]; active means viability on the fitted dose curve at most 10% of control; inactive means the rest;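 further: spheroids exposed to the agents for 7 days before readout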
# CONDITION_SUMMARY: second compound 1 µM; first compound 0.0949 µM
// one of active, inactive, no free text

Completed entries (count: 2):
>  <COMPOUND>
C=CC(=O)Nc1cc(Nc2nccc(-c3cn(C)c4ccccc34)n2)c(OC)cc1N(C)CCN(C)C + CNC(=O)c1ccc(Nc2nc(OC3CCCC3)c3c(-c4ccc5nc(C)oc5c4)c[nH]c3n2)c(OC)c1

>  <CATEGORY>
inactive

$$$$
>  <COMPOUND>
NC(=O)C(=Cn1cnc(-c2cc(C(F)(F)F)cc(C(F)(F)F)c2)n1)c1cncnc1 + CN1CCN(c2cc(C(=O)Nc3cc4cc(-c5cnn(C)c5)ccc4cn3)ccn2)CC1

>  <CATEGORY>
active

$$$$

Moving on to another compound below.
Query: // outcome(item) with item = CC(C)CC(NC(=O)C(Cc1ccccc1)NC(=O)c1cnccn1)B(O)O (stereo not drawn) + CNC(=O)c1ccc(Nc2nc(OC3CCCC3)c3c(-c4ccc5nc(C)oc5c4)c[nH]c3n2)c(OC)c1
Result: active

====

# System: 996289-038-R-J1-PDC complex spheroid viability
# ASSAY_INFO: Anticancer human tumor 996289-038-R-J1-PDC cell line growth inhibition [CLK];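 further: spheroids exposed to the agents for 7 days before readout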
# CONDITION_SUMMARY: curve of first compound; second compound 1 µM
Let's look at some molecules and their measured pIC50.
The value called pIC50 is obtained by taking minus log10 of the concentration in mol/L.

>  <MOLECULE>
NC(=O)C(=Cn1cnc(-c2cc(C(F)(F)F)cc(C(F)(F)F)c2)n1)c1cncnc1 + CNC(=O)c1ccc(Nc2nc(OC3CCCC3)c3c(-c4ccc5nc(C)oc5c4)c[nH]c3n2)c(OC)c1

>  <READING>
7.89

$$$$
>  <MOLECULE>
CC(Nc1ccc2c(c1)OCCn1cc(N3C(=O)OCC3C(F)F)nc1-2)C(N)=O (centres undefined) + CNC(=O)c1ccc(Nc2nc(OC3CCCC3)c3c(-c4ccc5nc(C)oc5c4)c[nH]c3n2)c(OC)c1

>  <READING>
7.34

$$$$
>  <MOLECULE>
COC1C=CCC(C)C(C)S(=O)(=O)NC(=O)c2ccc3c(c2)N(CC2CCC21)CC1(CCCc2cc(Cl)ccc21)CO3 (centres undefined) + CNC(=O)c1ccc(Nc2nc(OC3CCCC3)c3c(-c4ccc5nc(C)oc5c4)c[nH]c3n2)c(OC)c1

>  <READING>
5.93

$$$$
>  <MOLECULE>
CC1(C)CCC(CN2CCN(c3ccc(C(=O)NS(=O)(=O)c4ccc(NCC5CCOCC5)c([N+](=O)[O-])c4)c(Oc4cnc5[nH]ccc5c4)c3)CC2)=C(c2ccc(Cl)cc2)C1 + CNC(=O)c1ccc(Nc2nc(OC3CCCC3)c3c(-c4ccc5nc(C)oc5c4)c[nH]c3n2)c(OC)c1

>  <READING>
5.20

$$$$
>  <MOLECULE>
CCc1c2c(nc3ccc(O)cc13)-c1cc3c(c(=O)n1C2)COC(=O)[C@]3(O)CC + CNC(=O)c1ccc(Nc2nc(OC3CCCC3)c3c(-c4ccc5nc(C)oc5c4)c[nH]c3n2)c(OC)c1

>  <READING>
7.80

$$$$

Query: Item COc1cccc2c1C(=O)c1c(O)c3c(c(O)c1C2=O)CC(O)(C(=O)CO)CC3OC1CC(N)C(O)C(C)O1 (centres undefined) + CNC(=O)c1ccc(Nc2nc(OC3CCCC3)c3c(-c4ccc5nc(C)oc5c4)c[nH]c3n2)c(OC)c1 : provide pIC50
Result: 6.76

Query: Answer with the recorded pIC50 for the molecule listed here: Nc1ccccc1NC(=O)c1ccc(CNC(=O)OCc2cccnc2)cc1 + CNC(=O)c1ccc(Nc2nc(OC3CCCC3)c3c(-c4ccc5nc(C)oc5c4)c[nH]c3n2)c(OC)c1
Result: 5.77

Query: Supply recorded pIC50 for CC(C)CC(NC(=O)C(Cc1ccccc1)NC(=O)c1cnccn1)B(O)O (centres undefined) + CNC(=O)c1ccc(Nc2nc(OC3CCCC3)c3c(-c4ccc5nc(C)oc5c4)c[nH]c3n2)c(OC)c1 here.
Result: 8.88

Query: Please report pIC50 for the following molecule: C=CC(=O)Nc1cc(Nc2nccc(-c3cn(C)c4ccccc34)n2)c(OC)cc1N(C)CCN(C)C + CNC(=O)c1ccc(Nc2nc(OC3CCCC3)c3c(-c4ccc5nc(C)oc5c4)c[nH]c3n2)c(OC)c1
Result: 6.86
